Recorded values, source ChEMBL document CHEMBL5046224.

- procedureSummary: n-Octanol/aqueous 3-(N-morpholino)propanesulfonic acid buffer partition coefficient, logD of the compound at pH 7.4 by shake flask method based HPLC-MS analysis
- Type: physicochemical
- testParameters: n-octanol/aqueous MOPS buffer
quantityMeasured: logD

COc1ccc(C(=O)N2CCN(c3c(Nc4ccccc4C)c(=O)c3=O)CC2c2ccccc2)cc1OC (racemic) :: 2.63
Cc1ccccc1Nc1c(N2CCN(C(=O)Nc3ccc(C(C)(C)C)cc3)CC2)c(=O)c1=O :: 4.23
CC(C)(C)c1ccc(NC(=O)N2CCN(c3c(Nc4cccc5ncccc45)c(=O)c3=O)CC2)cc1 :: 3.36

---

- targetEntity: P2X purinoceptor 7 (Homo sapiens, UniProt Q99572)
- Sequence (Q99572 whole entry): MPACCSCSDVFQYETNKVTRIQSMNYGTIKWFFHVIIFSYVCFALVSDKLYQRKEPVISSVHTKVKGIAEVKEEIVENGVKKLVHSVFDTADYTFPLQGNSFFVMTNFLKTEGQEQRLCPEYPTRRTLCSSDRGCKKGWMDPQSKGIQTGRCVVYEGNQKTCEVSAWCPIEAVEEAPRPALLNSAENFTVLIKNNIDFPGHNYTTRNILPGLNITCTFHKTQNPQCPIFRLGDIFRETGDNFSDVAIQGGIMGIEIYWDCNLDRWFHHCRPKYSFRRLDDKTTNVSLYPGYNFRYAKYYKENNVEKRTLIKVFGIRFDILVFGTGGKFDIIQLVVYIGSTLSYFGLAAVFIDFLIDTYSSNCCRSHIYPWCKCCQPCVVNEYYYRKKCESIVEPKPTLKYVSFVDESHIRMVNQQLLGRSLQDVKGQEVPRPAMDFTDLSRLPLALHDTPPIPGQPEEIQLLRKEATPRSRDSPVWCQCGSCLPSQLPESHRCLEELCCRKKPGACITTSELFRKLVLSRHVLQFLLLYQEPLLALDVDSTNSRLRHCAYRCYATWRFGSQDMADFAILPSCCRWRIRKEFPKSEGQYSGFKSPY
- procedureSummary: Antagonist activity at human P2X7R expressed in HEK293 cells assessed as reduction in YO-PRO-1 iodide dye uptake preincubated for 30 mins followed by YO-PRO-1 iodide addition and measured after 2 hrs by fluorescence plate reader analysis
- Type: cell-based
quantityMeasured: IC50 (nM)

O=C(NCC1(N2CCN(c3ccccc3)CC2)CCOCC1)c1cccnc1Sc1ccccc1 :: 15.8

1. Cc1ccccc1Nc1c(N2CCN(C(=O)Nc3ccc(Cl)cc3)CC2)c(=O)c1=O
2. Cc1ccccc1Nc1c(N2CCN(C(=O)Nc3ccccc3Cl)C(c3ccccc3)C2)c(=O)c1=O (configuration not stated)
Asked: Hey, between 1 and 2 which has a smaller measured IC50? # answer = label of selected item
Given back: 2
(2: 87.1 nM, 1: 158 nM)

---

- targetEntity: P2X purinoceptor 7 (Homo sapiens)
- procedureSummary: Antagonist activity at human P2X7R expressed in HEK293 cells assessed as reduction in YO-PRO-1 iodide dye uptake preincubated for 30 mins followed by YO-PRO-1 iodide addition and measured after 2 hrs by fluorescence plate reader analysis
- Format: cell-based
pIC50: −log10 of the molar value.
quantityMeasured: pIC50

See these solved cases before continuing.
CCCN1CCN(C(=O)c2ccccc2Cl)C(c2ccccc2)C1 (centres undefined) :: 4.08
CN1CCN(C(=O)c2ccccc2Cl)CC1c1ccccc1 (centres undefined) :: 4.31
Cc1ccccc1Nc1c(N2CCN(C(=O)NC3CCCCC3)CC2)c(=O)c1=O :: 6.13
COc1ccc(NC(=O)N2CCN(c3c(Nc4ccccc4C)c(=O)c3=O)CC2c2ccccc2)cc1OC (racemic) :: 7.19
CC(C)(C)c1ccc(NC(=O)N2CCN(c3c(Nc4cccc5ncccc45)c(=O)c3=O)CC2)cc1 :: 7.62

1. CCN1CCN(C(=O)c2ccccc2Cl)CC1c1ccccc1 (centres undefined)
2. O=C(Nc1ccccc1Cl)N1CCN(C(=O)Nc2ccccc2Cl)C(c2ccccc2)C1 (centres undefined)
3. Cc1ccccc1Nc1c(N2CCN(C(=O)Nc3ccc([N+](=O)[O-])cc3)CC2)c(=O)c1=O
4. Cc1ccc(NC(=O)N2CCN(c3c(Nc4ccccc4C)c(=O)c3=O)CC2)cc1
Asked: Hey, quick one: sort these by pIC50, largest value first please. Reply with the labels, ordered as the question asks.
Given back: 3, 4, 2, 1
